Origin of the recorded values: the RNAGym collection of RNA variant scans (doi:10.7554/elife.80360)

B1: HDV Ribozyme (parent)
chain: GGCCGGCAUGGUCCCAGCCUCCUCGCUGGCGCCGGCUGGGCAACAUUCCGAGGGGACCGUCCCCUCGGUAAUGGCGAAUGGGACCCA

variants of: B1; assay: self-cleavage, relative activity (ratio to wild type); higher = more cleavage; co-transcriptional
Entries and their self-cleavage values follow.

mutant: G10A G34A
self-cleavage: 0.164
--
mutant: U37A A51U
self-cleavage: 0
--
mutant: A51C U60A
self-cleavage: 1.11
--
mutant: G25C G40C
self-cleavage: 0.156
--
mutant: G17C C57G
self-cleavage: 0.516
--
mutant: C13A A42U
self-cleavage: 0.0845
--
mutant: G52U C58A
self-cleavage: 0.888
--
mutant: U60G G67C
self-cleavage: 0.98
--
mutant: A51G C64U
self-cleavage: 0.892
--
mutant: G28U G52C
self-cleavage: 0.154
--
mutant: C18U U69A
self-cleavage: 0.397
--
mutant: C44U G53A
self-cleavage: 0.709
--
mutant: C15G G35C
self-cleavage: 0.0791
--
mutant: C21U C62U
self-cleavage: 0.317
--
mutant: G2A A43G
self-cleavage: 0.0234
--
mutant: G67C C75G
self-cleavage: 0.0475
--
mutant: C36A G59U
self-cleavage: 0.138
--
mutant: A8G G82U
self-cleavage: 0.369
--
mutant: C58U A77C
self-cleavage: 0.489
--
mutant: G10U G76A
self-cleavage: 0.652
--
mutant: G10U A87U
self-cleavage: 0.653
--
mutant: C33U C66A
self-cleavage: 0.774
